ASSAYED SYSTEM: MERTK (UniProt Q12866)
Sequence (Q12866 whole entry, looked up): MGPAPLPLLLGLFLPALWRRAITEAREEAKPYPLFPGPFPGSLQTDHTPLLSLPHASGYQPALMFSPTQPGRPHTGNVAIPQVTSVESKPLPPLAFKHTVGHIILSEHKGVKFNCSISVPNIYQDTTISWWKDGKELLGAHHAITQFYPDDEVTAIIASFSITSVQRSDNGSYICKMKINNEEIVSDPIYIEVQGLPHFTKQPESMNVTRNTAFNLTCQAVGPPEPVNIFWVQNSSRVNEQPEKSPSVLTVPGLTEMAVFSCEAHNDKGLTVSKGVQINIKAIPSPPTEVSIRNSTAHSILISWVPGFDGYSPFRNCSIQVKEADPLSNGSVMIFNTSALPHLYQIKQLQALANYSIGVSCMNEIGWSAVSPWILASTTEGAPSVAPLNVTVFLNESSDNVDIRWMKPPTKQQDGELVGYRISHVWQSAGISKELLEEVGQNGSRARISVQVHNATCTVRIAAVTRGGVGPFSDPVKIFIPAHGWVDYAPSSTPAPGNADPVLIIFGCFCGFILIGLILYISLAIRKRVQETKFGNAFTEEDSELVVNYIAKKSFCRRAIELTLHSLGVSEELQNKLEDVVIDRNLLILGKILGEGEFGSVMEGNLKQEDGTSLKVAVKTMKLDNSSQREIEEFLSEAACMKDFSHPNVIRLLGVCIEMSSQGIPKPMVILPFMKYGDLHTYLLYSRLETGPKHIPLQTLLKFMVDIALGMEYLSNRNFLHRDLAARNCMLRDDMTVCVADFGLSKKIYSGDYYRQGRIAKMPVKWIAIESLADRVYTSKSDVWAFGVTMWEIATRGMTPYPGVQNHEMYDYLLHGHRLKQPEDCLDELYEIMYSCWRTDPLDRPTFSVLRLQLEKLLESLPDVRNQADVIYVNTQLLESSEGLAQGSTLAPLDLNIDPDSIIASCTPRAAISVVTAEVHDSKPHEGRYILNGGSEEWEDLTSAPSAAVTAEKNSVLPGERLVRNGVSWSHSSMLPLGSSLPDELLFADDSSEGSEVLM
EXPERIMENTAL DETAILS: phosphorylation enrichment, bacterial display (enrichment ratio); higher = better substrate or ligand; peptides without Tyr show the background;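 note: 11-residue human phosphosite peptides and single-mutation variants displayed on the E. coli surface, counted by deep sequencing, each peptide's frequency after selection divided by its frequency in the unselected input library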;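 note: frequency after pTyr selection over input frequency; kinase dosed for 20-30% of maximal phosphorylation in three min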
ASSAY READOUT: phosphorylation enrichment

1) LLSVAYKNVVG [YWHAG_Y49]
0.454
2) ISIFHYAKGQP [MPZ_Y82]
0.379
3) MACDRYVAICS [OR8D4_Y123]
0.576
4) SSFDTYHLSRE [KIR3DL2_Y253_I252T_YF]
0.613
5) LSQQVYRVNLS [FAT4_Y480_F475L]
0.792
6) DGTVHYVDEKG [IFT140_Y216]
0.443
7) RYLTRYIYNRE [HLA-DQB1_Y62_V59L]
3.87
8) TLQNMYGCDVG [HLA-B_Y123_S121N]
0.446
9) MWGSDYVHLSR [MAP3K4_Y582_Q584H]
0.53
10) REVKAYGAGLL [TH_Y419_G414R]
0.411
11) PDMHSYVVRFN [GRIN2D_Y732_M733V_YF]
0.531
12) NDEDIYKGLPD [VAV3_Y141]
0.444
13) IQRSLYDCPAS [PDGFRA_Y762_R764C]
3.85
14) LEKRAYICAHP [ACAD9_Y611]
0.479

====

ASSAYED SYSTEM: FGFR1 (UniProt P11362)
Sequence (P11362 whole entry, looked up): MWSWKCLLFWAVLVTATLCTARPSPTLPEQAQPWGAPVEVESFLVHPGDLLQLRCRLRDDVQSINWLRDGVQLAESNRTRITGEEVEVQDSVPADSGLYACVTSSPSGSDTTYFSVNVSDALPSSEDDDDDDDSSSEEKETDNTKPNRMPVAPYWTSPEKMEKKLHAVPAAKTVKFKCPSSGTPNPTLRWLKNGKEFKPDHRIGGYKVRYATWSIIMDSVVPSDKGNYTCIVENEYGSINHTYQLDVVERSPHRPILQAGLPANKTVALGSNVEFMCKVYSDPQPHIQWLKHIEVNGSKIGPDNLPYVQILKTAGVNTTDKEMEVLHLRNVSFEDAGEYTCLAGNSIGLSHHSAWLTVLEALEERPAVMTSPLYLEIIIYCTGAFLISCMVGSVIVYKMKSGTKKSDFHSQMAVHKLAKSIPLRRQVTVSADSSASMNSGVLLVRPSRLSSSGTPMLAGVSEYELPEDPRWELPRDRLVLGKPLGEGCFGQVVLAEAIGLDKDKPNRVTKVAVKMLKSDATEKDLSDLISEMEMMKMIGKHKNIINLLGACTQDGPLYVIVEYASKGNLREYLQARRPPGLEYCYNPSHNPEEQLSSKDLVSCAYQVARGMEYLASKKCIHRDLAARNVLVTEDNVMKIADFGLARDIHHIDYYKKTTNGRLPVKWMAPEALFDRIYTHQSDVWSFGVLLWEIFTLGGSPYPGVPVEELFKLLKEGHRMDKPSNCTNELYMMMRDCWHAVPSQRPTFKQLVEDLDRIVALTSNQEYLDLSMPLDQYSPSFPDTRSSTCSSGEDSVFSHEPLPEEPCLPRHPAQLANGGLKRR
EXPERIMENTAL DETAILS: phosphorylation enrichment, bacterial display (enrichment ratio); higher = better substrate or ligand; peptides without Tyr show the background
ASSAY READOUT: phosphorylation enrichment

1. KACKHYLTTRT [ZBTB5_Y118]
0.448
2. HSLLQYGGSAN [ANK1_Y624_R619H]
0.316
3. SMEMKYLEEKN [ZAP70_Y451_G448E]
0.535
4. DKATEYIQFMR [MAX_Y70_YF]
0.589
5. MANYVYKAGPS [MAML2_Y515_M514V]
0.434
6. ARLEFCENEKK [IRS1_Y47_Y47C_YF]
0.581
7. KRISCYEASFQ [PFKFB3_Y194_YF]
0.523
8. CKLCQYYLDHL [ATRX_Y1849_Y1847C]
0.579
9. ILTYKYLQIPM [KIT_Y547_K550I]
0.785
10. SSRKEYFIGGG [GYPC_Y126]
0.532
11. SGTFQYIIAKF [FOXL2_Y83_I80T_YF]
0.494
12. SWDKRYCEAGC [ITGA2B_Y197_F202C]
0.507
13. GITTGYLVLKE [DNMT3B_Y588_A585T]
0.456
14. DEEFEYMNRRR [ERBB3_Y1199_YF]
0.591
15. SSENPCATIKD [MEGF10_Y1030_Y1030C]
0.554
16. MQMEEYRGRVE [BTNL2_Y91_W94R]
0.411
17. GNEEAYGRSHI [FAM171B_Y522]
0.378
18. LTECGYSFTTT [ACTB_Y198_R196C]
0.674
19. VRFMEYETQVK [TARDBP_Y155_T153M]
0.394
20. SLIDGYYRLTA [JAK2_Y372]
2.49
21. LLIVEYAKYGS [RET_Y806]
0.804
22. RSRSPYSPVFR [CDK13_Y399_L403F]
0.459
23. RLAKRYLIWEC [SCN5A_Y694_Q692K]
0.64
24. LDPIQYSKHPP [SQSTM1_Y433_T430P]
0.624
25. AHAGKYGAEAL [HBA1_Y25_E24K]
0.4
26. NDHHFYLEGTL [ALDOB_Y223_V222F]
0.489
27. RGRKVYLEDGF [PRIM2_Y201]
0.749
28. ADNSAYLMGLN [MYH7_Y386_K383N]
0.512
29. HVIKFYGACSQ [RET_Y791_L790F]
0.871
